- experimental.system: zif268 DBD E21N (RN) (UniProt P08046 331-420, E352N)
- measurement.notes: competition EMSA (QuMFRA); 30 mM Tris-HCl pH 8.0, 50 mM NaCl, 0.1 mg/ml BSA, 3 mM DTT, 20 uM ZnSO4, 5 ug/ml poly(dI-dC), 1 h on ice; 10% polyacrylamide gel

binder	binding signal
Zif_4 (AG) (dsDNA) DNA 1: TCGAGGTCGACGGTATCGCGTGGGAGCTCCACTAGTTCTAGAGCGGCCGCCAC DNA 2: GTGGCGGCCGCTCTAGAACTAGTGGAGCTCCCACGCGATACCGTCGACCTCGA	1.29 Ka relative to CG
Zif_5 (AA) (dsDNA) DNA 1: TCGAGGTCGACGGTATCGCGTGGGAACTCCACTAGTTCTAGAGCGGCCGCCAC DNA 2: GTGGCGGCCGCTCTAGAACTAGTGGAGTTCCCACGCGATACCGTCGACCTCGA	0.68 Ka relative to CG
Zif_6 (AC) (dsDNA) DNA 1: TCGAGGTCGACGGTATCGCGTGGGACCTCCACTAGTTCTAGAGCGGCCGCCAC DNA 2: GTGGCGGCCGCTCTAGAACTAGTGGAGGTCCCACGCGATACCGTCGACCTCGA	0.94 Ka relative to CG
